measurement-description: Level of siponimod in blood, brain and cerebrospinal fluid (CSF) in mice
Assay type: in vivo
reported-conditions: female, mouse, blood, po; C57Bl/6 mice, 3 mg/kg qd p.o., day 8, 8 h after last administration; mean (SEM); read-out: conc siponimod (nM) (SEM) Blood
value-kind: concentration at 8 h (nM)
Report the figure in nM without appending any unit label.

Challenge: Which concentration at 8 h value belongs to CCc1cc(/C(C)=N/OCc2ccc(C3CCCCC3)c(C(F)(F)F)c2)ccc1CN1CC(C(=O)O)C1 [siponimod] ?
Response given: 973

###

measurement-description: Level of siponimod in blood, brain and cerebrospinal fluid (CSF) in mice
Format: in vivo
reported-conditions: female, mouse, brain, oral; C57Bl/6 mice, EAE, 3 mg/kg qd, day 8, 8 h; mean (SEM); read-out: conc siponimod (nM) (SEM) Brain
value-kind: concentration at 8 h
Param answer (str): number followed by unit.

Challenge: What does the record list as concentration at 8 h for `CCc1cc(/C(C)=N/OCc2ccc(C3CCCCC3)c(C(F)(F)F)c2)ccc1CN1CC(C(=O)O)C1` ?
Response given: 9190 nM

###

measurement-description: Level of siponimod in blood, brain and cerebrospinal fluid (CSF) in mice
Type: in vivo
reported-conditions: female, mouse, blood, oral; C57Bl/6 mice, EAE, 3 mg/kg qd, day 8, 8 h; mean (SEM); read-out: conc siponimod (nM) (SEM) Blood
value-kind: concentration at 8 h (nM)
Provide the reading as a plain figure in nM.

Challenge: Reported concentration at 8 h, compound `CCc1cc(/C(C)=N/OCc2ccc(C3CCCCC3)c(C(F)(F)F)c2)ccc1CN1CC(C(=O)O)C1` : ____
Response given: 1600

###

measurement-description: Level of siponimod in blood, brain and cerebrospinal fluid (CSF) in mice
Format: in vivo
reported-conditions: female, mouse, CSF, oral; C57Bl/6 mice, EAE, 3 mg/kg qd, day 8, 8 h; mean (SEM); read-out: conc siponimod (nM) (SEM) CSF
value-kind: concentration at 8 h
Please provide the amount together with its unit, number first.

Challenge: # input compound: CCc1cc(/C(C)=N/OCc2ccc(C3CCCCC3)c(C(F)(F)F)c2)ccc1CN1CC(C(=O)O)C1 [siponimod] ; wanted: its concentration at 8 h
Response given: 17.7 nM

###

measurement-description: Level of siponimod in blood, brain and cerebrospinal fluid (CSF) in mice
Format: in vivo
reported-conditions: female, mouse, CSF, po; C57Bl/6 mice, 3 mg/kg qd p.o., day 8, 8 h after last administration; mean (SEM); read-out: conc siponimod (nM) (SEM) CSF
value-kind: concentration at 8 h

Challenge: What concentration at 8 h value was documented for this compound, `CCc1cc(/C(C)=N/OCc2ccc(C3CCCCC3)c(C(F)(F)F)c2)ccc1CN1CC(C(=O)O)C1` ?
Response given: 7.2 nM

###

measurement-description: Level of siponimod in blood, brain and cerebrospinal fluid (CSF) in mice
Format: in vivo
reported-conditions: female, mouse, brain, po; C57Bl/6 mice, 3 mg/kg qd p.o., day 8, 8 h after last administration; mean (SEM); read-out: conc siponimod (nM) (SEM) Brain
value-kind: concentration at 8 h (nM)
Report as a plain number; the unit nM is understood.

Challenge: Given the entry CCc1cc(/C(C)=N/OCc2ccc(C3CCCCC3)c(C(F)(F)F)c2)ccc1CN1CC(C(=O)O)C1 [siponimod] , report its measured concentration at 8 h.
Response given: 5550
